From: paper PMC10303384

MEASUREMENT_NOTES: Solubility classification in representative solvents (Vogel protocol)
Type: physicochemical
SETTINGS: acetonitrile, organic solvent or mixture, thermodynamic from solid; 25 °C; test amount 0.1 g; Snyder polarity index 6.2; read-out: Solubility in Acetonitrile
Description: This investigation details how to determine the solubility of terbinafine and its salts, guided by the experimental protocol in Vogel’s Textbook of Practical Organic Chemistry. Based on the Snyder polarity index values of the representative solvents, each solvent was tested for its ability to dissolve the target analytes. The solubility data was classified into three categories based on the observed extent of dissolution. […]
REPORTED_METRIC: solubility

Q: Request the reported solubility associated with CN(C/C=C/C#CC(C)(C)C)Cc1cccc2ccccc12 [Terbinafine]
Ans: > 100 mg/mL

Q: Request the reported solubility associated with CN(C/C=C/C#CC(C)(C)C)Cc1cccc2ccccc12.O=C(O)/C=C/C(=O)O [TIS 4]
Ans: < 33.3 mg/mL

Q: Request the reported solubility associated with CN(C/C=C/C#CC(C)(C)C)Cc1cccc2ccccc12.O=C(O)/C=C\C(=O)O [TIS 3]
Ans: < 33.3 mg/mL

Q: Request the reported solubility associated with CN(C/C=C/C#CC(C)(C)C)Cc1cccc2ccccc12.O=C(O)c1ccccc1O [TIS 1]
Ans: > 100 mg/mL

###

Tested on: B. cinerea on cherry tomatoes
MEASUREMENT_NOTES: In vivo antifungal bioassay on cherry tomatoes
Parameters: species or system Botrytis cinerea
SETTINGS: 20 mg/L, 7 days after treatment
REPORTED_METRIC: Diameter of infection (cm) 7 days

Q: Request the reported Diameter of infection (cm) 7 days associated with CN(C/C=C/C#CC(C)(C)C)Cc1cccc2ccccc12.O=C(O)c1ccccc1O [TIS 1]
Ans: 1.10 cm

Q: Request the reported Diameter of infection (cm) 7 days associated with CN(C/C=C/C#CC(C)(C)C)Cc1cccc2ccccc12.O=C(O)c1ccco1 [TIS 5]
Ans: 0.74 cm

Q: Request the reported Diameter of infection (cm) 7 days associated with CN(C/C=C/C#CC(C)(C)C)Cc1cccc2ccccc12 [Terbinafine]
Ans: 1.07 cm

Q: Request the reported Diameter of infection (cm) 7 days associated with COC(=O)N(OC)c1ccccc1COc1ccn(-c2ccc(Cl)cc2)n1 [Pyraclostrobin, reference compound]
Ans: 0.92 cm

Q: Request the reported Diameter of infection (cm) 7 days associated with CN(C/C=C/C#CC(C)(C)C)Cc1cccc2ccccc12.O=C(O)/C=C\C(=O)O [TIS 3]
Ans: 1.02 cm

Q: Request the reported Diameter of infection (cm) 7 days associated with COC(=O)Nc1nc2ccccc2[nH]1 [Carbendazim, reference compound]
Ans: 0.92 cm

###

Test system: Rhizoctonia solani (R. solani)
MEASUREMENT_NOTES: microbe, parasite or virus in culture
Type: cell-based
SETTINGS: read-out: EC50 (μmol/L)
REPORTED_METRIC: pEC50
The read-out pEC50 is expressed as -log10 of concentration in moles per litre.

Q: Request the reported pEC50 associated with CN(C/C=C/C#CC(C)(C)C)Cc1cccc2ccccc12.O=C(O)c1ccccc1O [TIS 1]
Ans: 5.24

Q: Request the reported pEC50 associated with CN(C/C=C/C#CC(C)(C)C)Cc1cccc2ccccc12.O=C(O)/C=C\C(=O)O [TIS 3]
Ans: 5.35

Q: Request the reported pEC50 associated with CN(C/C=C/C#CC(C)(C)C)Cc1cccc2ccccc12.O=C(O)/C=C/C(=O)O [TIS 4]
Ans: 5.25
